Experiment: Toxicity liver stage against HepG2, at 10uM
Format: cell-based
Parameters: test concentration 10 uM, cell line HepG2-A16-CD81EGFP
Conditions: human, HepG2-A16-CD81EGFP cells; read-out: INHIBITION
observed property: cytotoxicity at 10 µM (%)
Please give a number only; it is taken to be in %.

NC(=O)C1(CCCc2ccccn2)CCCN(Cc2ncc[nH]2)C1 (configuration not stated) : -0.00173
N[C@@H](Cc1ccccc1)c1nnc(S(=O)(=O)Cc2cccc(Cl)c2)o1 : 7.87

Inquiry: Could you please provide reported cytotoxicity at 10 µM for O=C(NC1(c2nnn(CCO)n2)CCCC1)c1ccccc1 ? Thanks!
Reply text: 14.8

Inquiry: Find the measured cytotoxicity at 10 µM of CN(CCCO)C(=O)c1ccc2c(c1)nc(N1CC[C@H](O)C1)n2C and report it.
Reply text: -1.46

###

Test: Toxicity liver stage against HepG2, at 10uM
Assay type: cell-based
Design: test concentration 10 uM, cell line HepG2-A16-CD81EGFP
Conditions: human, HepG2-A16-CD81EGFP cells; read-out: INHIBITION
Form field: cytotoxicity at 10 µM (one value per entry).
Record the value in %, omitting the unit from your answer.

Cn1c(C(=O)N2CCC(C(N)=O)C2)c(Cl)c2ccccc21 (centres undefined) : 2.03
COCC(=O)NCc1cc(=O)n2c(n1)CN(Cc1ccoc1)CCC2 : -124
O=C(c1nc(Cc2c[nH]c3ccccc23)no1)N1CCCCC1 : 6.04

Inquiry: Supply reported cytotoxicity at 10 µM belonging to this compound: CC(C)NC(=O)[C@H]1C[C@@H]2[C@@H](C1)OCCN2Cc1ccccn1
Reply text: 6.62

Inquiry: Consider the compound CCC(C(=O)NCc1ccncc1)N(c1ccccc1)S(C)(=O)=O (centres undefined) . State its measured cytotoxicity at 10 µM.
Reply text: -1.17

Inquiry: Kindly indicate its recorded cytotoxicity at 10 µM. Item: CC(C)c1nnc2sc(CC3CN(C(C)C)CCO3)nn12 (centres undefined)
Reply text: -13.8

Inquiry: Input COc1ccc(-c2cccc(CC3(C(=O)O)CCOCC3)c2)cc1 , output reported cytotoxicity at 10 µM.
Reply text: -34.3

Inquiry: Indicate its recorded cytotoxicity at 10 µM; the compound in question is CN(C)C(=O)N1C[C@H]2CC[C@@H](C1)N(S(=O)(=O)c1cccnc1)C2
Reply text: -6.55

Inquiry: Report cytotoxicity at 10 µM for O=C(Cc1ccc(CO)cc1)N1CCN(CC2CC2)[C@@H]2CS(=O)(=O)C[C@@H]21
Reply text: -14.2

Inquiry: Give me measured cytotoxicity at 10 µM, please, for this compound: CCN(CC)C(C(=O)NCc1ccc(N2CCCC2)nc1)C(C)C (centres undefined)
Reply text: -8.08

Inquiry: Please list cytotoxicity at 10 µM recorded for the compound COc1c(CNCc2ccc3c(c2)OCCO3)c(C(C)C)nn1C
Reply text: -3.42

###

Assay: Toxicity liver stage against HepG2, at 10uM
Assay type: cell-based
Design: test concentration 10 uM, cell line HepG2-A16-CD81EGFP
Conditions: human, HepG2-A16-CD81EGFP cells; read-out: INHIBITION
Recorded cytotoxicity at 10 µM for the following compounds
// units = %; emit number, no label

Solved cases below.
O=C(Nc1ccc(F)cc1)N1C[C@@H]2C[C@H](C(=O)N3CCCC3)[C@H](C1)O2 : 7.06
CN(C)CC1(O)CCCN(C(=O)CCc2nc3cccnc3n2C)C1 (stereo not given) : 0.0448
CN(Cc1n[nH]c2c1CCC2)C(=O)c1cccc(CCC(C)(C)O)c1 : 3.01
CCN(C)c1ncnc2c1CCN(Cc1ccc(OC)cc1)CC2 : 9.88

Inquiry: Please supply the value of reported cytotoxicity at 10 µM for the item O=S1(=O)CCN(Cc2cccnc2)[C@H]2CCN(c3ncccn3)CC[C@H]21
Reply text: -11.2
